Taken from patent US20150147274A1.

molecular target: T1, MET928 (cMET protein derived from construct 25-928) (human, UniProt P08581 25-928); assay: ELISA, soluble scFv
T1 construct: MET ectodomain, residues 1-24 are the leader; produced in Lec 8 cells; background text says the ectodomain is furin-cleaved into alpha (25-307) and beta chains; biotinylated form used in selections; also called MET928 extracellular domain; Met extracellular domain
T1 sequence (P08581 25-928): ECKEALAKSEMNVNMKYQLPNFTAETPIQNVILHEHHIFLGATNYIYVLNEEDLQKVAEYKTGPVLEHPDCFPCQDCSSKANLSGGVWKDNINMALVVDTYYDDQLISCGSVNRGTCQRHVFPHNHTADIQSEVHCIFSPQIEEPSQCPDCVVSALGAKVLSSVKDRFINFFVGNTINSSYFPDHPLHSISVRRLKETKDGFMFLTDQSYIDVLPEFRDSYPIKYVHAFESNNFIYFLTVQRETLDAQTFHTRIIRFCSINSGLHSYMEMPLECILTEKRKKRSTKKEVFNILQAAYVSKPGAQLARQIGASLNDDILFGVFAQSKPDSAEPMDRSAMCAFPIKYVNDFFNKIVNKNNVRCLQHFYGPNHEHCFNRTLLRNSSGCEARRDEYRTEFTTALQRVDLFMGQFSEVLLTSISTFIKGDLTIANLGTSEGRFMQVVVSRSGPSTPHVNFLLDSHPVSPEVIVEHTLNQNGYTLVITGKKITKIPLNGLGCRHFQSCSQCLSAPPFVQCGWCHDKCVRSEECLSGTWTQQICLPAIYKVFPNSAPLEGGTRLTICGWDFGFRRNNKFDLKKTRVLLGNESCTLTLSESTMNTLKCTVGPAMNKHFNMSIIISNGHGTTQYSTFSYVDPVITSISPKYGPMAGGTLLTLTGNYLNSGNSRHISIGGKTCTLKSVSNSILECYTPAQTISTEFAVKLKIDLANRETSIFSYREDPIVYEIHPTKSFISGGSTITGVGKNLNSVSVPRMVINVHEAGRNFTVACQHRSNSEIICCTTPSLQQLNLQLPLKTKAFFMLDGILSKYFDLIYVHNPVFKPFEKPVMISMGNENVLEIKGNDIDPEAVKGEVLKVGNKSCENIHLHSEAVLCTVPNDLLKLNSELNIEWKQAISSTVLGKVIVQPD

>  <binder>
108_D11 (scFv, not shown: 6xHis/tri-FLAG tags) scFv: QMQLVQSGAEVKKPGAPVKVSCKVSGYTFTDYYMHWVQQAPGKGLEWMGLVDPEDGETIYAEKFQGRVTITADTSTDTAYMELSSLRSEDTAVYYCATDATTPYWGAAAWGQGTLVTVSSLEGGGGSGGGGSGGGASDIQMTQSPSSLSASVGDRVTITCQASQDISNYLNWYQQKPGRAPKVLIYDASNLETGVPSRFSGSGSGTEFTLTISNLRPDDFATYYCQQGDSFPLTFGGGTKVEIK

>  <binding result>
binds

$$$$
>  <binder>
108_D4 (scFv, not shown: 6xHis/tri-FLAG tags) scFv: QMQLVQSGAEVKKPGAPVKVSCKVSGYTFTDYYMHWVQQAPGKGLEWMGLVDPEDGETIYAEKFQGRVTITADTSTDTAYMELSSLRSEDTAVYYCATDATTPYWGMSGWGQGTLVTVSSLEGGGGSGGGGSGGGASDIQMTQSPSSLSASVGDRVTITCQASQDISNYLNWYQQKPGRAPKVLIYDASNLETGVPSRFSGSGSGTEFTLTISNLRPDDFATYYCQQGDSFPLTFGGGTKVEIK

>  <binding result>
binds

$$$$
>  <binder>
112_H6 (scFv, not shown: 6xHis/tri-FLAG tags) scFv: QMQLVQSGAEVKKPGAPVKVSCKVSGYTFTDYYMHWVQQAPGKGLEWMGLVDPEDGETIYAEKFQGRVTITADTSTDTAYMELSSLRSEDTAVYYCATDATTPYWGMMEWGQGTLVTVSSLEGGGGSGGGGSGGGASDIQMTQSPSSLSASVGDRVTITCQASQDISNYLNWYQQKPGRAPKVLIYDASNLETGVPSRFSGSGSGTEFTLTISNLRPDDFATYYCQQGDSFPLTFGGGTKVEIK

>  <binding result>
binds

$$$$
